Target: BRD3 (Homo sapiens, UniProt Q15059)
Construct: HiBiT, is appended to the N-terminus of endogenous BRD2, BRD3, and BRD4; endogenous in cells
Sequence (Q15059 whole entry): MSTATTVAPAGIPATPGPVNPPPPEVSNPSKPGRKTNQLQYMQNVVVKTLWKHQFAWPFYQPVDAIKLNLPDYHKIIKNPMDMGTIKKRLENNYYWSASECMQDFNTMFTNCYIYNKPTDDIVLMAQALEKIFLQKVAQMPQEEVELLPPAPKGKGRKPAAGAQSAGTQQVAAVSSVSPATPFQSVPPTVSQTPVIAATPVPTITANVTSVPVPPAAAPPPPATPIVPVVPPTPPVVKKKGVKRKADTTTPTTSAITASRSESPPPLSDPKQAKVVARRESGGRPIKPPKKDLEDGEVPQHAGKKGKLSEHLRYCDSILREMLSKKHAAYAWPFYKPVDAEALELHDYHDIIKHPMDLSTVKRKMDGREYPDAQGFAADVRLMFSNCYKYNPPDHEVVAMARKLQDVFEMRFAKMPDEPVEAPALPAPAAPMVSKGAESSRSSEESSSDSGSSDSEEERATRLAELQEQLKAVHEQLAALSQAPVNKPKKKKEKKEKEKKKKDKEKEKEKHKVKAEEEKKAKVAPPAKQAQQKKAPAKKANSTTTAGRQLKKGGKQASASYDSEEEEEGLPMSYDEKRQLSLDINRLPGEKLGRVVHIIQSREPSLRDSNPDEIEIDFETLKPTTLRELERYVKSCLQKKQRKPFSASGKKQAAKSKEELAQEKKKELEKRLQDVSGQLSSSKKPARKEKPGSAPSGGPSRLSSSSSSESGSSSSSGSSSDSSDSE
Experiment: Western blot dose-response degradation in HEK293 cells
Assay type: cell-based
Conditions: 6 h, mean ± S.E.M. of three experiments, values marked b mean ± S.D. of two
Would you kindly list DC50 for each of these compounds?
Kindly provide the numeric value in nM only, without the unit symbol.

Request: Can you look up the measured DC50 of Cc1ncsc1-c1ccc(CNC(=O)[C@@H]2C[C@@H](O)CN2C(=O)[C@@H](NC(=O)COCC(C)(COCCOCCNc2cc3c(cc2F)C(=O)N(C2CCC(=O)NC2=O)C3=O)COCCOCCOC(=O)C[C@@H]2N=C(c3ccc(Cl)cc3)c3c(sc(C)c3C)-n3c(C)nnc32)C(C)(C)C)cc1 (mixture of isomers) for me?
Response: 6.4

Request: Param item = Cc1ncsc1-c1ccc(CNC(=O)[C@@H]2C[C@@H](O)CN2C(=O)[C@@H](NC(=O)COCC(COCCOCCOCCNc2cc3c(cc2F)C(=O)N(C2CCC(=O)NC2=O)C3=O)(COCCOCCOCCOC(=O)C[C@@H]2N=C(c3ccc(Cl)cc3)c3c(sc(C)c3C)-n3c(C)nnc32)COCCOCCOCCOC(=O)C[C@@H]2N=C(c3ccc(Cl)cc3)c3c(sc(C)c3C)-n3c(C)nnc32)C(C)(C)C)cc1 (mixture of isomers) ; retrieve measured DC50.
Response: 3.5

Request: So what's the measured DC50 for this one? Cc1ncsc1-c1ccc(CNC(=O)[C@@H]2C[C@@H](O)CN2C(=O)[C@@H](NC(=O)COCC(C)(COCCOCCOCCNc2cc3c(cc2F)C(=O)N(C2CCC(=O)NC2=O)C3=O)COCCOCCOC(=O)C[C@@H]2N=C(c3ccc(Cl)cc3)c3c(sc(C)c3C)-n3c(C)nnc32)C(C)(C)C)cc1 (mixture of isomers)
Response: 14

Request: What measured DC50 goes with Cc1ncsc1-c1ccc(CNC(=O)[C@@H]2C[C@@H](O)CN2C(=O)[C@@H](NC(=O)COCC(C)(COCCOCCNc2cc3c(cc2F)C(=O)N(C2CCC(=O)NC2=O)C3=O)COCCOCCOCCOC(=O)C[C@@H]2N=C(c3ccc(Cl)cc3)c3c(sc(C)c3C)-n3c(C)nnc32)C(C)(C)C)cc1 (mixture of isomers) ?
Response: 6.6

Request: Name the recorded DC50 for Cc1ncsc1-c1ccc(CNC(=O)[C@@H]2C[C@@H](O)CN2C(=O)[C@@H](NC(=O)COCC(C)(COCCOCCOCCNc2cccc3c2C(=O)N(C2CCC(=O)NC2=O)C3=O)COCCOCCOC(=O)C[C@@H]2N=C(c3ccc(Cl)cc3)c3c(sc(C)c3C)-n3c(C)nnc32)C(C)(C)C)cc1 (mixture of isomers) .
Response: 28
